Biological target: mAChR M4 (Homo sapiens)
Construct: expressed in transfected cells; host or cells: CHO-K1 cells stably transfected with M4 cDNA and chimeric G-protein Gqi5
Sequence (P08173 whole entry): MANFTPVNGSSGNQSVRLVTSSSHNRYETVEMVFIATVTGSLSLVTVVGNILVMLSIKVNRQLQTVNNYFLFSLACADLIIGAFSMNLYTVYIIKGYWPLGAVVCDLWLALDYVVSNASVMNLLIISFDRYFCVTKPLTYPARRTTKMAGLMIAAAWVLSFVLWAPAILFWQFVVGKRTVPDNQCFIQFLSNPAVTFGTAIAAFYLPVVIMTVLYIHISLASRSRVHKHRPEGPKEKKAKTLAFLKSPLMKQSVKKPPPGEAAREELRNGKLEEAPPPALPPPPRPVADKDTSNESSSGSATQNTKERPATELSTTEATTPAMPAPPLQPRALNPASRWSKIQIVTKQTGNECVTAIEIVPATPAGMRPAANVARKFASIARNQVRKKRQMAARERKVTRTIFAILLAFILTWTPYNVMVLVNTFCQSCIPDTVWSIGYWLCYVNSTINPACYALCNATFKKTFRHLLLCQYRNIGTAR
Experiment: mAChR M4 cell-based functional assay (calcium mobilization, potentiation of EC20 acetylcholine response)
Conditions: % ACh maximum at 30 μM
Checkbox rule: Emax at 30 µM lower than 60% = y; Emax at 30 µM not lower than 60% = n.

Cc1nnc2sc(C(=O)N3CC(Cc4ccccc4)C3)c(N)c2c1C : n
Cc1ccc(S(=O)(=O)N2CCC(NC(=O)c3sc4nnc(C)c(C)c4c3N)C2)s1 (centres unmarked) : n
COc1ccc(C2(CNC(=O)c3sc4nnc(C)c(C)c4c3N)CC2)cc1 : y
Cc1nnc2sc(C(=O)NCc3ccc(-c4cccs4)cc3)c(N)c2c1C : n
Cc1nnc2sc(C(=O)NCc3ccc(S(=O)(=O)C(F)F)cc3)c(N)c2c1C : n
Cc1nnc2sc(C(=O)NCc3ccc(-c4ccsc4)cc3)c(N)c2c1C : n
Cc1nnc2sc(C(=O)N3CC(F)(c4cccc(N=[N+]=[N-])c4)C3)c(N)c2c1C : y
Cc1nnc2sc(C(=O)NCc3ccc(-c4cc(F)nc(F)c4)cc3)c(N)c2c1C : n
Cc1nnc2sc(C(=O)NCc3ccc([S+]([O-])C(F)F)cc3)c(N)c2c1C (single isomer, unassigned) [Example B491] : n
Cc1nnc2sc(C(=O)NCC3CCS(=O)(=O)C3)c(N)c2c1C (centres unmarked) : y
CCCCCC(=O)N1CCC(NC(=O)c2sc3nnc(C)c(C)c3c2N)C1 (centres unmarked) : n
Cc1nnc2sc(C(=O)NCc3ccc(C#N)c(F)c3)c(N)c2c1C : n
COCCOCCNC(=O)c1sc2nnc(C)c(C)c2c1N : y
Cc1nnc2sc(C(=O)NCc3ncccn3)c(N)c2c1C : y
Cc1nnc2sc(C(=O)NCc3ccc(S(=O)(=O)CF)cc3)c(N)c2c1C : n
Cc1ccc(S(=O)(=O)N2CCC(NC(=O)c3sc4nnc(C)c(C)c4c3N)C2)cc1 (centres unmarked) : n
COc1ccc([C@H]2C[C@@H]2NC(=O)c2sc3nnc(C)c(C)c3c2N)cc1 (single isomer, unassigned) : n
Cc1nnc2sc(C(=O)NCc3ccc(S(=O)(=O)C(C)C)cc3)c(N)c2c1C : n
Cc1nnc2sc(C(=O)N3CCC4(CCCC4)C3)c(N)c2c1C : n
Nc1c(C(=O)NCc2cccc(F)c2F)sc2nnc3c(c12)CCCC3 : y
Cc1nnc2sc(C(=O)N[C@H]3CCN(c4ccccc4)C3)c(N)c2c1C : n
COc1ncc(-c2ccc(CNC(=O)c3sc4nnc(C)c(C)c4c3N)cc2)cn1 : y
Cc1nnc2sc(C(=O)NCc3ccc(OC(F)F)nc3)c(N)c2c1C : n
COc1cccc(C2(F)CN(C(=O)c3sc4nnc(C)c(C)c4c3N)C2)c1 : y
Cc1nnc2sc(C(=O)NCc3ccc(S(=O)(=O)CCO)cc3)c(N)c2c1C : n
COc1ccc(C(=O)N2CC(NC(=O)c3sc4nnc(C)c(C)c4c3N)C2)cc1 : n
CCCCOc1ccc(C(=O)N2CCC(NC(=O)c3sc4nnc(C)c(C)c4c3N)C2)cc1 (centres unmarked) : n
Cc1nnc2sc(C(=O)NCc3ccc(C(C)S(C)(=O)=O)cc3)c(N)c2c1C (centres unmarked) : n
Cc1nnc2sc(C(=O)NCc3ccc(-c4ccc5c(c4)OCO5)cc3)c(N)c2c1C : y
Cc1cc(NC(=O)c2sc3nnc(C)c(C)c3c2N)ccn1 : y
Cc1nnc2sc(C(=O)N3CC(C)(F)C3)c(N)c2c1C : n
Cc1nnc2sc(C(=O)NCCNC(=O)C3CC3)c(N)c2c1C : y
Cc1nnc2sc(C(=O)NCc3ccc4c(c3)OC(F)(F)O4)c(N)c2c1C : n
